Cited source for all entries: the supplement of paper PMC12317010

test: collision cross section in nitrogen (drift tube, single-field); higher = larger gas-phase ion size; conditions: ion type: [M+Na]; ion source: ESI; ion mode: Positive;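 note: chemical standards at 10 µM analysed by drift tube IMS-QTOF MS in about 3.95 torr nitrogen, mean of duplicate injections differing ≤1%, mass error below 10 ppm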
MEASURED ATTRIBUTE: collision cross section in nitrogen (Å²)

• Cc1cc2c(cc1C(F)(F)F)N(C(=O)Nc1ccc(Oc3cccnc3C)nc1)CC2 = 211
• COCC(C)N(C(=O)CCl)c1c(C)csc1C (stereo unspecified) [Dimethenamid] = 167.9
• CCOC(=O)C1CC(=O)C(=C(O)C2CC2)C(=O)C1 (stereo unspecified) [Trinexapac-ethyl] = 167.5
• Nc1cc2c3c(c1)C(c1ccccc1)=N[C@@H](NC(=O)c1cccnc1)C(=O)N3CC2 = 209.2
• CC(C)C(=O)OCC(C)(C)C(O)C(C)C (stereo unspecified) [Texanol] = 161.4
• CCCCOCCOC(=O)COc1nc(Cl)c(Cl)cc1Cl [Triclopyr 2-butoxyethyl ester] = 176.3
• COC(=O)c1sccc1S(N)(=O)=O [Methyl 3-sulfamoylthiophene-2-carboxylate] = 148.5
• Cc1nccn1-c1ccc(Sc2cccc(C3(C(N)=O)CCOCC3)c2)cc1 = 188.1
• CCOc1cc(C(C)(C)C)ccc1C1COC(c2c(F)cccc2F)=N1 (stereo unspecified) [Etoxazole] = 196
• CCOP(=S)(OCC)SCS(=O)(=O)CC [Phorate sulfone] = 162.8
• O=C(N[C@@H](Cc1ccccc1)[C@@H](O)C(=O)N1C[C@@H](O)[C@@H](O)C1)c1cc2cc(Cl)ccc2[nH]1 [Ingliforib] = 220.4
